experiment: PAMPA gastrointestinal tract permeability; format: in vitro ADME
QUANTITY MEASURED: Fa, fraction absorbed (GI) (%)

> print(dat)
                                   molecule  readout.unit  measured.value
1  O=C(c1ccc(O)cc1)N1CCN(c2cnccn2)CC1 [Compound 2]             %           62.71
2  COc1ccc(C(=O)N2CCN(c3cnccn3)CC2)cc1 [Compound 3]             %           99.90
3  Nc1ccc(C(=O)N2CCN(c3cnccn3)CC2)cn1 [Compound 4]             %           99.91
4  CC(C)NCC(O)COc1ccc(CC(N)=O)cc1 (stereo not shown) [Atenolol, reference compound]             %            1.70
5  O=C(c1ccc2cc(O)ccc2c1)N1CCN(c2cnccn2)CC1 [Compound 5]             %           45.70
6  O=C(c1cccc(O)c1O)N1CCN(c2cnccn2)CC1 [Compound 6]             %           86.26
7  O=C(c1ccc(O)c(Cl)c1)N1CCN(c2cnccn2)CC1 [Compound 1]             %           99.26

====

test: PAMPA gastrointestinal tract permeability; format: in vitro ADME; conditions: PAMPA-GI; read-out: GI Pe
QUANTITY MEASURED: Papp at 8 h, 0.5 mM (×10⁻⁶ cm/s)

> print(dat)
                            molecule.smiles    quantity.measured  measured.value
1  O=C(c1ccc2cc(O)ccc2c1)N1CCN(c2cnccn2)CC1  Papp at 8 h, 0.5 mM            1.61
2       O=C(c1cccc(O)c1O)N1CCN(c2cnccn2)CC1  Papp at 8 h, 0.5 mM            5.22
3    O=C(c1ccc(O)c(Cl)c1)N1CCN(c2cnccn2)CC1  Papp at 8 h, 0.5 mM            12.9
4       COc1ccc(C(=O)N2CCN(c3cnccn3)CC2)cc1  Papp at 8 h, 0.5 mM            18.2
5        O=C(c1ccc(O)cc1)N1CCN(c2cnccn2)CC1  Papp at 8 h, 0.5 mM            2.59
6        Nc1ccc(C(=O)N2CCN(c3cnccn3)CC2)cn1  Papp at 8 h, 0.5 mM            18.4

====

experiment: Hepatotoxicity in HepG2 cells (MTS); assay type: cell-based; settings: human, read-out: CC50 against HepG2 cells
QUANTITY MEASURED: CC50 at 72 h

> print(dat)
                                   compound  quantity.measured  measured.value
1  O=C(c1ccc(O)cc1)N1CCN(c2cnccn2)CC1 [Compound 2]       CC50 at 72 h         > 64 µM

====

assay: Kinetic solubility; type: physicochemical; settings: PBS, 25 °C, pH 7.4, aqueous buffer, kinetic from dmso stock
QUANTITY MEASURED: solubility kinetic at 24 h

> print(dat)
                      molecule.smiles  measured.value
1  O=C(c1ccc(O)cc1)N1CCN(c2cnccn2)CC1        > 153 µM

====

assay: PAMPA blood-brain barrier permeability; format: in vitro ADME; conditions: PAMPA-BBB, pH 7.4; read-out: BBB Pe
QUANTITY MEASURED: Papp at 0.2 mg/mL (×10⁻⁶ cm/s)

> print(dat)
                            molecule.smiles  measured.value
1        Nc1ccc(C(=O)N2CCN(c3cnccn3)CC2)cn1            1.02
2    O=C(c1ccc(O)c(Cl)c1)N1CCN(c2cnccn2)CC1            0.52
3        O=C(c1ccc(O)cc1)N1CCN(c2cnccn2)CC1            0.55
4       O=C(c1cccc(O)c1O)N1CCN(c2cnccn2)CC1            4.51
5  O=C(c1ccc2cc(O)ccc2c1)N1CCN(c2cnccn2)CC1            0.96
6       COc1ccc(C(=O)N2CCN(c3cnccn3)CC2)cc1            2.21
